# System: OVCAR-4 ovarian
# Method summary: NCI tumour cell line growth inhibition, 48 h
Measure: TGI

Entry COc1ccc2oc(=O)cc(C(c3ccc[nH]3)c3ccc[nH]3)c2c1 , TGI reported as 26.3 µM

====

# Tested on: CCRF-CEM leukemia
# Method summary: NCI tumour cell line growth inhibition, 48 h
Parameter: TGI. Scope: all listed entries.
Your answer should be a plain number; it is taken to be in µM.

Answered examples (3):
| Compound | Measure | Result unit | Val |
| --- | --- | --- | --- |
| FC(F)(F)c1nc(N2CCCC2)ncc1-c1nnnn1-c1ccc(Cl)cc1 | TGI | µM | 45.4 |
| O=C[C@@H](CO)O[C@H](C=O)c1c[nH]c(=O)[nH]c1=O | TGI | µM | 973 |
| COC(=O)CCC(=O)C(=O)OC | TGI | µM | 85500 |

Next:
Just so you know, measured TGI for COC(=O)[C@@]12C(=O)C=CC(=O)[C@@H]1C1C(=CC2COC(C)=O)O[C@@H]2OC3(CCCCC3)O[C@H]12 (stereo not given in full) came out at 17

====

# System: SF-268 CNS
# Method summary: NCI tumour cell line growth inhibition, 48 h
Items are presented alongside their recorded TGI.
# unit: µM | format: bare number

The examples below pair each entry with its known result.
| Compound | TGI, µM |
| --- | --- |
| CC1(C)CC23C4COC(=O)C2CCC1C3CC4=O (configuration not stated) | 50.9 |
| C/C=C/[C@H]1O[C@@](O)([C@@H](C)[C@H](O)[C@H](C)[C@H]2OC(=O)/C(OC)=C/C(C)=C/[C@@H](C)[C@@H](O)[C@@H](CC)[C@@H](O)[C@H](C)C/C(C)=C/C=C/[C@@H]2OC)C[C@H](OC2CC(O)C(O)C(C)O2)[C@@H]1C (some centres not stated) | 25.6 |
| COc1ccc(/C=C2\CCCC(CN(C)C)C2=O)cc1 (configuration not stated) | 11 |

Would you kindly look at the next entry?
TGI for N=C(N)c1ccc(OCc2cccc(COc3ccc(C(=N)N)cc3)c2)cc1 is 18.5

====

# Test system: HOP-62 NSCLC
# Method summary: NCI tumour cell line growth inhibition, 48 h; in the data active means GI50 below about 0.43 µM; inactive means the rest
Respond using exactly one of the listed classes: active, inactive

| Chemical structure | Target | Assigned category |
| --- | --- | --- |
| CCN(CC)CCOCC[C@H]1CC[C@H]2[C@@H]3[C@H](C)Cc4cc(OS(N)(=O)=O)ccc4[C@H]3CC[C@]12C | HOP-62 NSCLC | inactive |
| COc1cc(NS(C)(=O)=O)ccc1Nc1c2ccc([N+](=O)[O-])cc2nc2c(C)cccc12 | HOP-62 NSCLC | active |
| COc1ccccc1NC(=O)c1sc2nc3c(cc2c1N)C(=O)CCC3 | HOP-62 NSCLC | inactive |
| O=C(Nc1cccc(-n2ccc3c(NC(=O)c4ccccc4)nccc32)c1)c1ccc(N2CCOCC2)c(C(F)(F)F)c1 | HOP-62 NSCLC | active |

Below: the item to evaluate.
Exercise: What classification did COc1ccc(OC)c(/C=N/NC(=O)Cc2csc3nc(-c4ccc(Br)cc4)cn23)c1 end up with in this test?
Key: inactive

====

# Test system: K-562 leukemia
# Method summary: NCI tumour cell line growth inhibition, 48 h; in the data active = GI50 below about 0.43 µM; inactive = the rest
Please reply with one of these outcomes: Y = active, N = inactive

| Chemical structure | Assigned category |
| --- | --- |
| CC(C)[C@]12O[C@H]1[C@@H]1O[C@]13[C@]1(O[C@H]1C[C@H]1C4=C(CC[C@@]13C)C(=O)OC4)[C@@H]2O | Y |
| Cc1cccc(NC(=O)CCc2ccc(N3C(N)=NC(N)=NC3(C)C)cc2)c1 | N |
| COc1cc(C(=O)/C=C/c2c(C)n([O-])c3ccc(C)cc3[n+]2=O)cc(OC)c1OC | N |

We next turn to a different compound, shown below.
Exercise: Which result was noted for this compound in the test: CC(=O)NCCc1c2c(c3nccc4c3c1Nc1ccccc1-4)OCS2
Key: N
